These measurements were taken from patent US20140271653A1.

ASSAY SYSTEM: T1, RSV-F.mmh (Respiratory Syncytial Virus)
T1 construct: also called recombinant RSV-F; soluble monomeric RSV-F
ASSAY INFO: SPR (Biacore), mAb captured via Fc, soluble RSV-F.mmh injected, 25 C
# t½ values compiled below

[
  {
    "BINDER": "H1H3592P3 (antibody, V domains shown) VH: EVQLVESGGDLVQPGRSLRLSCVASGFTFDDYAMHWVRQAPGKGLEWVSGVSWSGSTVGYADSVKGRFTVSRDNAQKSLYLQMNSLRAEDTALYYCVKDAYKFNYYYYGLDVWGQGTTVTVSS VL: EIVMTQSPATLSVSPGERATLSCRASQTILSNLAWYLQKPGQAPRLLIYGASTRATGLPARFSGSGSGTEFTLTISSLQSEDFAVYYCQQYNNWPLTFGGGTKVEIK",
    "t½": "0.25 h"
  },
  {
    "BINDER": "H1H3564P (antibody, V domains shown) VH: QVQLVQSGAEVKKPGSSVKVSCKASGGTLSNNAFSWVRQAPGQGLEWLGGFNPIFDTANYAQKFQGRITITLDASTGTVYMELSSLRSEDTGVYYCAGTGAHFEFWGQGTLVTVSS VL: DIQMTQSPSSLSASVGDRVTITCRTSQSISTYLNWYQQKPGKAPKFLIYAASTLQSGVPSRFSGSGSRTDFTLTISSLQPEDFATYYCQQSVSVPYTFGQGTKLEIK",
    "t½": "2.47 h"
  },
  {
    "BINDER": "H1H3565P (antibody, V domains shown) VH: QVQLVESGGGVVQPGRSLRLSCAASGFTFNSYGMHWVRQAPGKGLEWVTFIWSDGSNKYYLDSVKGRFTISRDNSKNTLYLQMNSLRAEDTAVYYCARSGLASYYYYGMDVWGQGTTVTVSS VL: DIQMTQSPSSLSASVGDRVTITCRASQGIRNDLGWYQQKPGKAPKRLIYGASSLQSGVPSRFSGSGSGTEFTLTISSLQPEDFATYSCLQHNSYPWTFGQGTKVEIK",
    "t½": "3.32 h"
  },
  {
    "BINDER": "Control I (palivizumab sequence) (antibody, V domains shown, also called Control 1; SYNAGIS) VH: QVTLRESGPALVKPTQTLTLTCTFSGFSLSTSGMSVGWIRQPPGKALEWLADIWWDDKKDYNPSLKSRLTISKDTSKNQVVLKVTNMDPADTATYYCARSMITNWYFDVWGAGTTVTVSS VL: DIQMTQSPSTLSASVGDRVTITCKCQLSVGYMHWYQQKPGKAPKLLIYDTSKLASGVPSRFSGSGSGTEFTLTISSLQPDDFATYYCFQGSGYPFTFGGGTKLEIKR",
    "t½": "0.0667 h"
  },
  {
    "BINDER": "H1H3607P (antibody, V domains shown) VH: QVQLVESGGGLVKPGGSLRLSCAASGFTFSDYYMTWIRQVPGKGLEWVSYISSTGNNRYYGDSVKGRFAISRDNAKNLLFLQMNSLKAEDTAVYYCARENNWNPYFFYYGMDVWGQGTTVTVSS VL: DIQMTQSPSSVSASVGDRVTITCRASQGISIWLAWYQQKPGKAPKLLISAASTLQSGVPSRFSGSGSGTDFTLTISSLQPEDFATYYCQQANSFPLTFGQGTKVEIK",
    "t½": "1.3 h"
  },
  {
    "BINDER": "H1H3591P (antibody, V domains shown) VH: EVQLVESGGGLVQPGRSLRLSCAASGFTFDDYAMHWVRQTPGKGLEWISGISWSSGTIVYADSVKGRFTISRDNAKNSLYLQMNSLRGEDTALYHCAKDGYRWKSYSYGLDVWGQGTTVTVSS VL: EIVMTQSPATLSLSPGERATLSCRPSQSVINNLAWYQQKPGQAPRLLIFGASSRATGIPARFSGSGSGTEFTLTISSLQSEDFALYYCQQYNNWPLTFGGGTKVEIK",
    "t½": "0.133 h"
  },
  {
    "BINDER": "H1H3566P (antibody, V domains shown) VH: QVQLVESGGGVVQPGRSLRLSCAASGFTFSSYGMHWVRQAPGKGLEWVVFLWYDGSNKHYADSVKGRFTISRDNSKNTLYLQMNSLRAEDTAVYYCARSGLASYYYYSMDVWGQGTTVTVSS VL: DIQMTQSPSSLSASVGDRVTITCRASQGIRNDLAWYQQKPGKAPKRLIYGASSLHSGVPSRFSGSGSGTEFTLTISSLQPEDFATYSCLQHNSYPWTFGQGTKVEIK",
    "t½": "4.58 h"
  },
  {
    "BINDER": "H1H3608P2 (antibody, V domains shown) VH: QVQLVESGGGVVQPGRSLRLSCAASGFTFSSYGMHWVRQAPGKGLEWVAVIYYEGSNDYYVDSVKGRFTISRDNSKNTLYLQMNSLRAEDTAVYYCARRDWNSFDYWGQGTLVTVSS VL: DIVMTQSPLSLSVTPGEPASISCRSSQNLLNRNGFNYLDWYLQKPGQSPQLLIYLGSNRASGVPDRFSGSGSGTDFTLKISRVEVEDVGVYYCMQAIQTPYTFGQGTKLEIK",
    "t½": "7.42 h"
  },
  {
    "BINDER": "H1H3605P (antibody, V domains shown) VH: QVQLQESGPGLVKPSETLSLTCTVSGGFISNYYWSWIRQPPGKGLEWIGYIYYSGSTKYNPSLKSRVTISVDTSKNQFSLKLSSVSAADTAVYYCARDGVVAAAGPPYHYHYGLDVWGQGTTVTVSS VL: DIVMTQSPDSLAVSLGERATINCKSSQNLLYTSSNKNSLAWYQQKPGQPPELLIYWASTRESGVPDRFSGSGSGTDFILTISSLQAEDVAVYYCQQYYSSPWTFGQGTKVEIK",
    "t½": "1.15 h"
  },
  {
    "BINDER": "H1H3604P (antibody, V domains shown) VH: QVQLVESGGGLVKPGGSLRLSCAASGFTFSDYYMTWIRQAPGRGLEWVSYISDTGSHLYYADSVRGRFTISRDNAKNSLYLQMNNLRAEDTAVYYCARDQDGEMELRFFDYWGQGTLVTVSS VL: EIVLTQSPATLSLSPGERGTLSCRASQSINNYLAWYQQKPGQAPRLLIFDASNRATGIPARFSGSGSGTDFTLTISRIEPEDFAVYYCQQRTNWPLTFGGGTKVEIK",
    "t½": "2.08 h"
  }
]
